Hey, just so you know, these numbers are from ChEMBL document CHEMBL2439987.

- assay system: Transient receptor potential cation channel subfamily V member 1 (Homo sapiens)
- procedure text: Antagonist activity at human TRPV1 expressed in CHOK1 cells assessed as inhibition of pH-induced activity by FLIPR assay
- Assay type: cell-based, CHO-K1
Item-by-item account of IC50

Answered examples (6):
Short answer for CC(C(=O)NCc1ccc(C(F)(F)F)nc1SC1CCC(C(C)(C)C)CC1)c1ccc(NS(C)(=O)=O)c(F)c1 (configuration not stated) : IC50 was 89.6 nM

Lab note: CCCCCSc1nc(C(F)(F)F)ccc1CNC(=O)C(C)c1ccc(NS(C)(=O)=O)c(F)c1 (configuration not stated) gave IC50 of 95.6 nM

Per the record, C[C@H](C(=O)NCc1ccc(C(F)(F)F)nc1SC1CCCCC1)c1ccc(NS(C)(=O)=O)c(F)c1 has IC50 of > 1000 nM

In plain terms, CC(C(=O)NCc1ccc(C(F)(F)F)nc1SCCc1ccccc1)c1ccc(NS(C)(=O)=O)c(F)c1 (configuration not stated) has a documented IC50 of 111 nM

Lab note: CC(C(=O)NCc1ccc(C(F)(F)F)nc1SCc1cccc(C(F)(F)F)c1)c1ccc(NS(C)(=O)=O)c(F)c1 (configuration not stated) gave IC50 of 71 nM

Recorded result, CC(C(=O)NCc1ccc(C(F)(F)F)nc1SCCCBr)c1ccc(NS(C)(=O)=O)c(F)c1 (configuration not stated) , IC50: 68 nM

More entries:
So, CCCCCCSc1nc(C(F)(F)F)ccc1CNC(=O)C(C)c1ccc(NS(C)(=O)=O)c(F)c1 (configuration not stated) ? Its IC50 was 719 nM

Noted for CC(C(=O)NCc1ccc(C(F)(F)F)nc1SCCOc1ccccc1)c1ccc(NS(C)(=O)=O)c(F)c1 (configuration not stated) : its IC50 reads 118 nM

----------
Overview of reported pIC50 across a group of molecules:
- assay system: Transient receptor potential cation channel subfamily V member 1 (Homo sapiens, UniProt Q8NER1)
- Sequence (Q8NER1 whole entry): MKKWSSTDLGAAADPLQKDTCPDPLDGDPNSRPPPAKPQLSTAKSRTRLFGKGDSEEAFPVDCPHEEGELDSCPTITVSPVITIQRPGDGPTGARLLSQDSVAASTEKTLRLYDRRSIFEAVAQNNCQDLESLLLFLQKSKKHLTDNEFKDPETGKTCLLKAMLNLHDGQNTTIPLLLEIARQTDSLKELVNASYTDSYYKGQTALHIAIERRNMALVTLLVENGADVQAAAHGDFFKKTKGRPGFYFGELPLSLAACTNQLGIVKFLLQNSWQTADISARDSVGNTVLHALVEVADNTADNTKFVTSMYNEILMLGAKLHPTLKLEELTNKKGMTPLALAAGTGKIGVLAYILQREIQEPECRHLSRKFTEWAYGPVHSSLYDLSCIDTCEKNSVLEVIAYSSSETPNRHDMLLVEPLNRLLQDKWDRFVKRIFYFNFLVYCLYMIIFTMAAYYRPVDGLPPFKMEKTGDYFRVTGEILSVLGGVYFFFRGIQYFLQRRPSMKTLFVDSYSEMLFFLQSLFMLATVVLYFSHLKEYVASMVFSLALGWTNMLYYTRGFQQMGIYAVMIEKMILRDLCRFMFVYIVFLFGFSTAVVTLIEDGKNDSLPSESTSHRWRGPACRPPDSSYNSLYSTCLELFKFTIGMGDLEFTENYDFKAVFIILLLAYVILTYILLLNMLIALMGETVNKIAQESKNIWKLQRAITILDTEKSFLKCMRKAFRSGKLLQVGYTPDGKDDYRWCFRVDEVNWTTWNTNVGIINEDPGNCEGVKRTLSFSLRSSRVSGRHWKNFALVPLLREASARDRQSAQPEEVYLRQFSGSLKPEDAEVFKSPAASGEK
- procedure text: Antagonist activity at human TRPV1 expressed in CHOK1 cells assessed as inhibition of pH-induced activity by FLIPR assay
- Assay type: cell-based, CHO-K1
Interpret pIC50 as the negative base-10 log of the concentration measured in mol/L.

Some molecules with recorded pIC50:
# pIC50 of CC(C(=O)NCc1ccc(C(F)(F)F)nc1SCCCN1CCCCC1)c1ccc(NS(C)(=O)=O)c(F)c1 (centres undefined) = 6.60

Record CC(C(=O)NCc1ccc(C(F)(F)F)nc1SCc1ccc(Cl)cc1)c1ccc(NS(C)(=O)=O)c(F)c1 (centres undefined) , field pIC50: 6.17

Further cases:
Memo: CC(C(=O)NCc1ccc(C(F)(F)F)nc1SCc1ccccc1Cl)c1ccc(NS(C)(=O)=O)c(F)c1 (centres undefined) , reported pIC50: 6.21

Record CC1CCC(Sc2nc(C(F)(F)F)ccc2CNC(=O)C(C)c2ccc(NS(C)(=O)=O)c(F)c2)CC1 (centres undefined) . Reported pIC50: 6.74

----------
- assay system: Transient receptor potential cation channel subfamily V member 1 (Homo sapiens, UniProt Q8NER1)
- procedure text: Antagonist activity at human TRPV1 expressed in CHOK1 cells assessed as inhibition of pH-induced activity by FLIPR assay
- Type: cell-based, CHO-K1
reported endpoint: pIC50
Lab note — pIC50 values are minus log10 of concentrations in M.

Examples with their reported pIC50 follow.
Form: compound = CC(C(=O)NCc1ccc(C(F)(F)F)nc1SCCCN1CCCC1)c1ccc(NS(C)(=O)=O)c(F)c1 (stereo not given) ; pIC50 = 6.51

Note to self: pIC50 recorded for CC(C(=O)NCc1ccc(C(F)(F)F)nc1SCCCN(C)C)c1ccc(NS(C)(=O)=O)c(F)c1 (stereo not given) was 5.82

Just so you know, measured pIC50 for CC(C(=O)NCc1ccc(C(F)(F)F)nc1SCC1CCCCC1)c1ccc(NS(C)(=O)=O)c(F)c1 (stereo not given) came out at 6.60

pIC50 recorded for this compound, Cc1ccc(CSc2nc(C(F)(F)F)ccc2CNC(=O)C(C)c2ccc(NS(C)(=O)=O)c(F)c2)cc1 (stereo not given) , is 6.12

Now for the compound whose pIC50 we want.
Entry CC(C)CCSc1nc(C(F)(F)F)ccc1CNC(=O)C(C)c1ccc(NS(C)(=O)=O)c(F)c1 (stereo not given) , pIC50 reported as 7.09
